# SPOT peptide array binding signal intensity per entry
target: SpLsb4; assay: SPOT peptide array binding signal intensity (averaged, normalized) (arbitrary units (background-subtracted, floor 0; scale differs between SH3 domains)); higher = stronger binding of the SH3 domain to the peptide
Keep the answer to the number alone.

The following binders have reported results that may help.
RKLRTVPGVPLIHLT ... 369
VGFRLALKFPSRITG ... 913

Next, consider the following binder.
## Task Look at this binder and give its reported SPOT peptide array binding signal intensity. PKRRAPPPVPKKPSS
## Result 1020
